This collection of values is drawn from paper PMC10574185.

- PROCEDURE_TEXT: Phase solubility studies with HP-β-CD
- Assay type: physicochemical
- MEASUREMENT_CONDITIONS: 60 °C, pH 6.5, with HP-β-CD
MEASUREMENT_TYPE: Kc complexation constant (M⁻¹)
Numbers only, in M⁻¹.

Sample records with Kc complexation constant:
# MOLECULE, Kc complexation constant [M⁻¹]
measured = [
    ("COc1ccc(C2C/C(=N\\NC(=O)c3ccncc3)c3c(O)cc(O)cc3O2)cc1O (racemic) [HIN]", 61),
    ("COc1ccc(C2CC(=O)c3c(O)cc(O)cc3O2)cc1O (stereo not shown) [Hesperetin, 3′,5,7-Trihydroxy-4′-methoxyflavanone]", 1179),
    ("COc1ccc(C2CC(=NNC(N)=S)c3c(O)cc(O)cc3O2)cc1O (stereo not shown) [HTSC]", 2.2),
]

Now examine the next entry.
Using the record for COc1ccc(C2C/C(=N\NC(=O)c3ccccc3)c3c(O)cc(O)cc3O2)cc1O (racemic) [HHSB] , report its Kc complexation constant.
155

---

- PROCEDURE_TEXT: Phase solubility studies with HP-β-CD
- Type: physicochemical
- MEASUREMENT_CONDITIONS: 25 °C, pH 6.5, with HP-β-CD
- Experimental: The purpose of this part of the study was to determine the solubility of compounds of hesperetin and its Schiff bases (HHSB, HIN, and HTSC) in aqueous solution at different pHs and temperatures, and the effect of their inclusion in modified HP-β-CD on the aqueous solubility of these compounds at different pH values. […] Complexation efficiency was calculated from the slope of the phase solubility diagram using Equation (2):(2) CE=S0×Kc=slope/1−slope […]
MEASUREMENT_TYPE: CE complexation efficiency (%)
Answers are plain numbers, in %.

# MOLECULE, UNIT_STRING, CE complexation efficiency
measured = [
    ("COc1ccc(C2CC(=NNC(N)=S)c3c(O)cc(O)cc3O2)cc1O (stereo not shown) [HTSC]", "%", 0.07),
]

Can you give me CE complexation efficiency for all of these, one by one?
1. COc1ccc(C2C/C(=N\NC(=O)c3ccccc3)c3c(O)cc(O)cc3O2)cc1O (racemic) [HHSB]
2. COc1ccc(C2C/C(=N\NC(=O)c3ccncc3)c3c(O)cc(O)cc3O2)cc1O (racemic) [HIN]
3. COc1ccc(C2CC(=O)c3c(O)cc(O)cc3O2)cc1O (stereo not shown) [Hesperetin, 3′,5,7-Trihydroxy-4′-methoxyflavanone]

[0.7, 0.2, 248]

---

Consider the following compounds; for each one, report its solubility at 60 min.
- PROCEDURE_TEXT: Phase solubility studies with HP-β-CD
- Format: physicochemical
- MEASUREMENT_CONDITIONS: thermodynamic from solid; 60 °C, pH 8.5 sodium borate buffer, with HP-β-CD; read-out: S0 (solubility with HP-β-CD)
Numbers only, in µM.

# COMPOUND, MEASUREMENT_TYPE, EXPERIMENTAL_VALUE
measured = [
    ("COc1ccc(C2CC(=NNC(N)=S)c3c(O)cc(O)cc3O2)cc1O (stereo not shown)", "solubility at 60 min", 270),
    ("COc1ccc(C2CC(=O)c3c(O)cc(O)cc3O2)cc1O (stereo not shown) [Hesperetin, 3′,5,7-Trihydroxy-4′-methoxyflavanone]", "solubility at 60 min", 150),
    ("COc1ccc(C2C/C(=N\\NC(=O)c3ccccc3)c3c(O)cc(O)cc3O2)cc1O (racemic)", "solubility at 60 min", 96),
]

# input for lookup
Fill in the blank: the reported solubility at 60 min of COc1ccc(C2C/C(=N\NC(=O)c3ccncc3)c3c(O)cc(O)cc3O2)cc1O (racemic) is ____.
283
